This listing pairs molecules with measured SCD1 % Max Inhibition.
- tested on: SCD1 (Homo sapiens, UniProt O00767)
- Construct: host or cells: S. cerevisiae ole1Δ strain, plasmid pRS316 with TDH3 promoter and CYC1 terminator
- Sequence (O00767 1-359): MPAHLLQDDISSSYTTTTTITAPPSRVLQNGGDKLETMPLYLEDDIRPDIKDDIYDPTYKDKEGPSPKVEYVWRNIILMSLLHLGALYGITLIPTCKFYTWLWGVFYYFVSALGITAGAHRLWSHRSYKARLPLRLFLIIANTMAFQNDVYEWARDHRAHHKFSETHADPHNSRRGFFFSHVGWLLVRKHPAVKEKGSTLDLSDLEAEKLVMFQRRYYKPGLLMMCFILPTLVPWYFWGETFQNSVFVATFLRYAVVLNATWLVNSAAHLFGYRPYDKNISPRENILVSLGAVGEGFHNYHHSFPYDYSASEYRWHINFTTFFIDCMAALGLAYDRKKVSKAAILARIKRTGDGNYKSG
- assay procedure: Growth inhibition of humanized yeast expressing SCD1 as sole desaturase
- Format: cell-based
- experimental context: humanized yeast expressing SCD1
Form entry: value (%) — number only.

// solved cases for SCD1 % Max Inhibition follow
molecule	scale unit	SCD1 % Max Inhibition
COc1cccc(-c2noc(C3CCN(C(=O)[C@@H]4CC(=O)N(c5ccc(C)c(C)c5)C4)CC3)n2)c1 (single isomer, unassigned)	%	60.59
COc1ccc(-c2noc(C3CCN(C(=O)[C@@H]4CC(=O)N(c5ccccc5)C4)CC3)n2)cc1OC	%	94.04

## Input For the molecule shown here, Cc1ccc(-c2noc(C3CCN(C(=O)C4CC(=O)N(c5ccc(C)c(C)c5)C4)CC3)n2)cc1 (stereo not drawn) , give the reported SCD1 % Max Inhibition.
## Output 2.37

## Input Can you share its SCD1 % Max Inhibition? I mean this molecule: COc1ccc(-c2noc(C3CCN(C(=O)[C@H]4CC(=O)N(c5ccccc5)C4)CC3)n2)cc1OC
## Output 83.43

## Input Given the molecule COc1ccc(-c2noc(C3CCN(C(=O)[C@H]4CC(=O)N(c5ccc(C)c(C)c5)C4)CC3)n2)cc1OC (single isomer, unassigned) , what is its reported SCD1 % Max Inhibition?
## Output 54.45

## Input Given the molecule COc1ccc(-c2noc(C3CCN(C(=O)[C@@H]4CC(=O)N(c5ccc(C)c(C)c5)C4)CC3)n2)cc1OC , what is its reported SCD1 % Max Inhibition?
## Output 22.28
